Reported fraction unbound at 4 h, 10 µM values for a set of compounds
- Run Description: Protein binding in human plasma at 10 uM measured after 4 hrs by rapid equilibrium dialysis
- Type: ADME, cell-free
- Settings: read-out: PPB (converted)
No unit in the answer, only the number.

Some compounds with recorded fraction unbound at 4 h, 10 µM:
Retrieve fraction unbound at 4 h, 10 µM measured for CC1(C)CC[C@]2(C(=O)O)CC[C@]3(C)C(=CC[C@@H]4[C@@]5(C)Cc6sc(N)nc6C(C)(C)[C@@H]5CC[C@]43C)[C@@H]2C1 and print it.
0.011

Look up fraction unbound at 4 h, 10 µM of CC(C)[C@@H]1CC[C@]2(C(=O)O)CC[C@]3(C)[C@H](CC[C@@H]4[C@@]5(C)Cc6sc(N)nc6C(C)(C)[C@@H]5CC[C@]43C)[C@@H]12 and report it.
0.015

***
Quickly give me recorded fraction unbound at 4 h, 10 µM for C[C@H]1[C@H](C)CC[C@]2(C(=O)O)CC[C@]3(C)C(=CC[C@@H]4[C@@]5(C)CC(Br)C(=O)C(C)(C)[C@@H]5CC[C@]43C)[C@H]12 (some centres undefined)
0.176

State its fraction unbound at 4 h, 10 µM for this compound: C=C(C)[C@@H]1CC[C@]2(C(=O)O)CC[C@]3(C)[C@H](CC[C@@H]4[C@@]5(C)Cc6sc(N)nc6C(C)(C)[C@@H]5CC[C@]43C)[C@@H]12
0.042

Attribution: ChEMBL document CHEMBL4312011
